# Measurement Description: Zootoxic activity against larvae of Artemia salina (brine shrimp) assessed as mortality at 10^-4 M
# Format: ADME, organism-based
# Cond: in vivo
Measurement Name: mortality at 100 µM (%)
// note: answer is a bare numeric in %

// mortality at 100 µM value for "CCN1C(=O)/C2=C3\CO[C@@](OC)([C@@H](O)CCCCC[C@]21C)[C@H]3O" : 24
